target desc: HLA-A*0203 (human)
assay method text: competitive inhibition of the radiolabeled peptide, purified HLA, average
observed property: IC50 (nM)
# value in nM; strip the unit string

## Task Reported IC50 for FLPSDYFPSV (modifications not checked) [HBV core 18-27 F6>Y analog peptide] : what is it?
## Result 10
